src = paper PMC11467436

Tested On: hMITF-WT (Homo sapiens, UniProt O75030-9 1-419)
Sequence (O75030 other isoform, or with tags, fused parts or gaps): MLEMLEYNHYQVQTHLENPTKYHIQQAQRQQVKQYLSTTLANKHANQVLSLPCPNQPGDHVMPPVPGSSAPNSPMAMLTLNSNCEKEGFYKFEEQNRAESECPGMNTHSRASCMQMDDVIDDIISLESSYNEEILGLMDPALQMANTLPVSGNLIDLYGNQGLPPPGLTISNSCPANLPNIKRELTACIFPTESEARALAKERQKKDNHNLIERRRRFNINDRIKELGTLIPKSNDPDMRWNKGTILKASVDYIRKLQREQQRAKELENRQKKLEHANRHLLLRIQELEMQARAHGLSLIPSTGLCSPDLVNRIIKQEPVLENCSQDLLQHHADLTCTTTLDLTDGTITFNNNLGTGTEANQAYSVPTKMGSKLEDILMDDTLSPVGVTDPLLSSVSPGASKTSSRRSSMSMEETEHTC
Protocol Description: smFRET; 300 mM KCl; Single-molecule: 0.5 nM DNA, 10 mM Tris pH 7.4, 0.1 mM EDTA, 165 or 300 mM KCl, 1 mM MgCl2, 143 mM 2-ME, 0.01% Tween-20, 0.1 mg/mL BSA. EMSA: 10 mM Hepes pH 7.9, 50 mM NaCl, 5 mM MgCl2, 0.1 mM EDTA, 2 mM DTT, 5% ethylene glycol, 5% glycerol, BSA, 30 min on ice
Cond: protein: recombinant; tags: none (His6-SUMO removed by ULP-1); unlabeled; chain copies: 2; label: Cy3B (5' positive strand); CF660R (5' negative strand); blunt
Property Label: pKd
Numbers only, as −log10 of the molar value.

Req: Recorded pKd for M-box smFRET probe (dsDNA, 5' C6-amino linker on both strands) DNA 1: GAGATCATGTGTTGA DNA 2: TCAACACATGATCTC , please?
Resp: 8.80
